measurement target: ZFP SBS#374 (synthetic)
Sequence (chain, as listed by the source): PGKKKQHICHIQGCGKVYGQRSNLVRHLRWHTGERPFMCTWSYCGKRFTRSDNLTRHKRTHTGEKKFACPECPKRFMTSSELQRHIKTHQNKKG
experiment notes: EMSA
test conditions: tags: MBP fusion
assay metric: Kd
Write the quantity with the unit trailing the number.

Input: Supply recorded Kd for GCTGAGGAA (dsDNA) DNA 1: GCTGAGGAA DNA 2: TTCCTCAGC here.
Output: 3.3 nM
